Value source: patent EP0195496A2

system name: cyclic AMP phosphodierterase
procedure details: cyclic AMP phosphodiesterase activity in rat gastrocnemius muscle homogenates (Dixon plot)
Format: biochemical
condition details: compounds of formula (II); homogenates of rat gastocnemius muscle; 0.31 uM cyclic AMP as substrate; Dixon plot extrapolation; read-out: Apparent Ki Value
Readings of Ki for the listed molecules

smiles entry | unit abbreviation | Ki
CCCCn1c(=O)c2c(ncn2CC(C)=O)n(CCCC)c1=S | µM | 2.5
CCCCn1c(=S)c2c(ncn2CC(C)=O)n(CC)c1=O | µM | 41
CCCCn1c(=S)c2c(ncn2CCC(C)=O)n(CC)c1=O | µM | 22.9
